Documented TGI across a set of molecules
system: EKVX NSCLC; assay: NCI tumour cell line growth inhibition, 48 h

Below, each entry is followed by its recorded TGI result.
CC1(C)CS(=O)(=O)CC(C)(C)C(=N/N)/C1=N\N | > 100 µM
O=C(NNC1=NCCN1)c1ccco1 | > 100 µM
COc1ccc(C2CC(c3cc(OC)c(OC)c(OC)c3)=NN2C(C)=O)cc1OCC(=O)Nc1nc2ccc(C(F)(F)F)cc2s1 (configuration not stated) | > 100 µM
CN(C)CCCN1c2ccccc2CCc2ccc(Cl)cc21 | 26.4 µM
COC(=O)c1ccc2c(O)c(O)ccc2c1 | 53.5 µM
CCOC(=O)c1nc2ccc([N+](=O)[O-])cc2c2c1CCO2 | > 100 µM

Input CN(C)c1ccc(N=Nc2ccc3nc[nH]c3c2)cc1 . Output TGI: > 100 µM

Input COc1cc2c(c(OC)c1OC)C(=O)[C@H](O)[C@H]2NC(N)=O . Output TGI: > 100 µM

Input CCC(NC(C)c1ccccc1)C(O)c1ccc(OCc2ccccc2)c(OCc2ccccc2)c1 (configuration not stated) . Output TGI: 31.2 µM

---

Documented TGI across a set of compounds
tested on: HCC-2998 colon; assay: NCI tumour cell line growth inhibition, 48 h

Below, each entry is followed by its recorded TGI result.
COc1c2c(cc3oc(C)cc(=O)c13)OC(=N)C(C(N)=O)C2CC(=O)c1ccc(N)cc1 (stereo unspecified) | > 100 µM
CN(CCO)c1nc2c(c(=O)[nH]1)CCC2 | > 100 µM
C[Si](C)(C)OC1(C#N)C2C3CC4C2C(=O)C2C4C3C21 (stereo unspecified) | > 100 µM

Input C=Cc1c(C)c(OC)cc2c1Oc1ccc(OC)c(C)c1CC2 . Output TGI: > 100 µM

Input CCCCCCc1cc(C(=O)Nc2cccc(C(F)(F)F)c2)nc(N)n1 . Output TGI: > 100 µM

Input C=C1COC(/C=C(\C)CC/C=C(\C)CCl)C1 (stereo unspecified) . Output TGI: > 100 µM

Input O=c1ccc2cc(O)c(O)cc2o1 . Output TGI: > 100 µM

Input c1ccc2c(C3NCCc4[nH]cnc43)cccc2c1 (stereo unspecified) . Output TGI: > 100 µM

Input O=c1oc2ccccc2cc1/C=N/N1C(=S)N(c2ccccc2)C(=Nc2ccccc2)C1=Nc1ccccc1 . Output TGI: > 100 µM

Input O=C(O)C/C=C/CC(=O)O . Output TGI: > 100 µM

Input O=C1C2CC=CCC2C(=O)N1n1c(-c2ccccc2)n[nH]c1=O (stereo unspecified) . Output TGI: > 100 µM

Input CC1C(c2ccccc2)OP(=O)(OC(C#N)c2ccccc2)N1C (stereo unspecified) . Output TGI: > 100 µM

Input O=S(=O)(c1ccccc1)C(CN1CCCCC1)S(=O)(=O)c1ccccc1 . Output TGI: > 100 µM

Input COc1nc2c(c(=O)n1C)N(C(C)=O)C1C(N2)OCC(OC(C)=O)C1OC(C)=O (stereo unspecified) . Output TGI: > 10 µM

Input COc1cccc(NC(=O)c2sc3nc4c(cc3c2N)CN(Cc2ccccc2)CC4)c1 . Output TGI: > 100 µM

Input CC(=O)C1=CSC2[C@H](NC(=O)Cc3ccccc3)C(=O)N2C1C(=O)OC(c1ccccc1)c1ccccc1 (stereo partly specified) . Output TGI: > 100 µM

Input CN(C)c1ccc(C=C2C(=O)OC(C)(C)OC2=O)cc1Br . Output TGI: > 100 µM
